Target: GLP-1R (Homo sapiens, UniProt P43220)
Construct: host or cells: GLP-1R CRE-bla CHO-K1 cells
Sequence (P43220 24-463): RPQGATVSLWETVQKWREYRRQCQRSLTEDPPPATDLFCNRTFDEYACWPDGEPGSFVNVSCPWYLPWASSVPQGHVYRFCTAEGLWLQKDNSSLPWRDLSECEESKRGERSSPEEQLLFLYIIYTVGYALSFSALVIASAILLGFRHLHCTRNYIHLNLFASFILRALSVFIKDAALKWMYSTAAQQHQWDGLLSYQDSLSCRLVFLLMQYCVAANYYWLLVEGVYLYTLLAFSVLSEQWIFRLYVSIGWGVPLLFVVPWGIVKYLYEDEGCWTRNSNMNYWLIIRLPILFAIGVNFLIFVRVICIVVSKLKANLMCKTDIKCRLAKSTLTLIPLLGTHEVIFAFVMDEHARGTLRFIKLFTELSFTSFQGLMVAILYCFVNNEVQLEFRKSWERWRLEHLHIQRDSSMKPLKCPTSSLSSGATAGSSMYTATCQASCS
Sequence (P01275 100-127 partner limits assumed): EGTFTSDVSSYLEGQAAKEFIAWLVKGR
Assay: EC20 GLP-1(9-36) PAM cAMP assay: dose response of compound in the presence of fixed concentration of GLP-1(9-36)
Assay type: cell-based
Conditions: dose response of compound in presence of fixed concentration of GLP-1(9-36), GLP-1R CRE-bla CHO-K1 cells, read-out: EC20 GLP-1(9-36) PAM EC50
Source text: EC20 GLP-1(9-36) PAM cAMP Assay: Dose Response of Compound in the Presence of Fixed Concentration of GLP-1 (9-36). […]
Observable: EC50

Look over these answered cases.
CCCCCCCOc1ccc(-c2cnc(-c3ccc(C[C@H](NC(=O)c4ccc(C(C)(C)C)s4)C(=O)N4CCC(F)(C(=O)O)C4)cc3)nc2)cc1 (stereo partly drawn) ... < 800 nM
Cc1ccc(/C=C/c2cnc(-c3ccc(C[C@H](NC(=O)c4ccc(C(C)(C)C)s4)C(=O)N4CC(C(=O)O)C4)cc3)nc2)cc1 ... 800 to 2500 nM

Recorded result, Cc1ccc(-c2ccc(-c3cnc(-c4ccc(C[C@H](NC(=O)c5ccc(C(C)(C)C)s5)C(=O)N[C@H](C)C(=O)O)cc4)nc3)cc2)cc1C , EC50: < 800 nM

----------
Target: GLP-1R (Homo sapiens, UniProt P43220)
Construct: host or cells: GLP-1R CRE-bla CHO-K1 cells
Test: EC20 GLP-1(9-36) PAM cAMP assay: dose response of compound in the presence of fixed concentration of GLP-1(9-36)
Type: cell-based
Conditions: GLP-1R CRE-bla CHO-K1 cells, compound dose response with fixed concentration of GLP-1(9-36), read-out: EC20 GLP-1(9-36) PAM EC50
pEC50: −log10 of the molar value.
Known pEC50 of a selection of molecules

Look over these answered cases.
CC(C)CCOc1ccc(-c2ccc(-c3cnc(-c4ccc(C[C@H](NC(=O)c5ccc(C(C)(C)C)s5)C(=O)N[C@H](C)C(=O)O)cc4)nc3)cc2)cc1 ... 5.60 to 6.10
CCCCc1ccc(C2CCCN(c3cnc(-c4ccc(C[C@H](NC(=O)c5ccc(C(C)(C)C)s5)C(=O)N5CC(C(=O)O)C5)cc4)nc3)CC2)cc1 (stereo partly drawn) ... > 6.10
CCc1ccc(C2CN(c3cnc(-c4ccc(CC(NC(=O)c5ccc(C(C)(C)C)s5)C(=O)N5CC(C(=O)O)C5)cc4)nc3)C2)cc1 (stereo not drawn) ... 5.00 to 5.30
CC(C)(C)c1ccc(C(=O)N[C@@H](Cc2ccc(-c3ncc(-c4ccc(-c5ccc(C6CCCCC6)cc5)cc4F)cn3)cc2)C(=O)N2CC(C(=O)O)C2)s1 ... > 6.10
CC(C)CCCOc1ccc(-c2cnc(-c3ccc(C[C@H](NC(=O)c4ccc(C(C)C)cc4)C(=O)N4CC(C(=O)O)C4)cc3)nc2)cc1 ... 5.60 to 6.10

Please look at the following molecule next.
Recorded result, CCC[C@H]1CC[C@H](C2CCN(c3cnc(-c4ccc(C[C@H](NC(=O)c5ccc(C6(C)CC6)cc5)C(=O)N5CC(C(=O)O)C5)cc4)nc3)CC2)CC1 , pEC50: > 6.10

----------
Known EC50 of a selection of compounds
Target: GLP-1R (Homo sapiens)
Construct: host or cells: GLP-1R CRE-bla CHO-K1 cells
Assay: EC20 GLP-1(9-36) PAM cAMP assay: dose response of compound in the presence of fixed concentration of GLP-1(9-36)
Format: cell-based
Details: dose response of compound in presence of fixed concentration of GLP-1(9-36), GLP-1R CRE-bla CHO-K1 cells, read-out: EC20 GLP-1(9-36) PAM EC50

CCCCCCCOc1ccc(-c2cnc(-c3ccc(C[C@H](NC(=O)c4ccc(C(C)(C)C)s4)C(=O)N[C@H](C(=O)O)C(C)(C)C)cc3)nc2)cc1 ... 5000 to 10000 nM
CCCCCCOc1ccc(-c2cnc(-c3ccc(C[C@H](NC(=O)c4ccc(C(C)(C)C)s4)C(=O)N4CC[C@H](C(=O)O)C4)cc3)nc2)cc1 ... 800 to 2500 nM
CC(C)(C)c1ccc(C(=O)N[C@@H](Cc2ccc(-c3ncc(-c4ccc(-c5ccccc5)cc4)cn3)cc2)C(=O)N2CC[C@H](C(=O)O)C2)s1 ... 5000 to 10000 nM
CCCCCOc1ccc(-c2cnc(-c3ccc(C[C@H](NC(=O)c4ccc(C(C)(C)C)s4)C(=O)NC(C(=O)O)C(O)c4ccccc4)cc3)nc2)cc1 (some centres unmarked) ... 2500 to 5000 nM
CCCCCCCOc1ccc(-c2cnc(-c3ccc(C[C@H](NC(=O)c4ccc(C(C)(C)C)cc4)C(=O)N4C[C@H](N(C)C)C[C@H]4C(=O)O)cc3)nc2)cc1 ... 800 to 2500 nM
CCCCCCCOc1ccc(-c2cnc(-c3ccc(C[C@H](NC(=O)c4ccc(C(C)(C)C)s4)C(=O)NCC4(C)CNC4)cc3)nc2)cc1 ... 800 to 2500 nM
CCCCCCCOc1ccc(-c2cnc(-c3ccc(C[C@H](NC(=O)c4ccc(CC)s4)C(=O)N4CCC[C@H]4C(=O)O)cc3)nc2)cc1 ... 800 to 2500 nM
CCCCCCCOc1ccc(-c2cnc(-c3ccc(C[C@H](NC(=O)c4ccc(C(C)(C)C)s4)C(=O)NC(CCS(C)(=O)=O)C(=O)O)cc3)nc2)cc1 (some centres unmarked) ... < 800 nM
CCCCCCCCOc1ccc(-c2cnc(-c3ccc(C[C@H](NC(=O)c4ccc(C(C)(C)C)s4)C(=O)N4CC(C(=O)O)C4)cc3)nc2)cc1 ... < 800 nM
CCCCCCCOc1ccc(-c2cnc(-c3ccc(C[C@H](NC(=O)c4ccc(C(=O)c5ccccc5)cc4)C(=O)N[C@H](C)C(=O)O)cc3)nc2)cc1 ... 2500 to 5000 nM

Recorded result, CCCCCCCOc1ccc(-c2cnc(-c3ccc(C[C@H](NC(=O)c4ccc(C(C)(C)C)s4)C(=O)NC(C(=O)O)C(O)c4cccc(Cl)c4)cc3)nc2)cc1 (some centres unmarked) , EC50: 2500 to 5000 nM

Recorded result, CCCCCCCOc1ccc(-c2cnc(-c3ccc(C[C@H](NC(=O)c4ccc(C(C)(C)C)s4)C(=O)N4CCC(C(=O)O)CC4)cc3)nc2)cc1 , EC50: < 800 nM

Recorded result, C[C@@H](NC(=O)[C@H](Cc1ccc(-c2ncc(-c3cc4ccccc4cc3O)cn2)cc1)NC(=O)c1ccc(C(C)(C)C)s1)C(=O)O , EC50: 5000 to 10000 nM

----------
Molecular target: GLP-1R (Homo sapiens, UniProt P43220)
Construct: host or cells: GLP-1R CRE-bla CHO-K1 cells
Assay: EC20 GLP-1(9-36) PAM cAMP assay: dose response of compound in the presence of fixed concentration of GLP-1(9-36)
Type: cell-based
Conditions: GLP-1R CRE-bla CHO-K1 cells, compound dose response with fixed concentration of GLP-1(9-36), read-out: EC20 GLP-1(9-36) PAM EC50
pEC50: −log10 of the molar value.
Observable: pEC50

Look over these answered cases.
CCCOc1ccc(-c2ccc(-c3cnc(-c4ccc(C[C@H](NC(=O)c5ccc(C(C)(C)C)s5)C(=O)N5CC(C(=O)O)C5)cc4)nc3)c(F)c2)cc1 ... > 6.10
CCCCCCOC1CN(c2cnc(-c3ccc(C[C@H](NC(=O)c4ccc(C(C)(C)C)s4)C(=O)N[C@H](C)C(=O)O)cc3)nc2)C1 ... 5.00 to 5.30
C=C(N[C@H](Cc1ccccc1)C(=O)O)[C@H](Cc1ccc(-c2ncc(N3CCC([C@H]4CC[C@H](CCC)CC4)CC3)cn2)cc1)NC(=O)c1ccc(C(C)(C)C)s1 ... > 6.10
CC[C@H]1CC[C@H](c2ccc(-c3cnc(-c4ccc(C[C@H](NC(=O)c5ccc(C(C)(C)C)s5)C(=O)O)cc4)nn3)cc2)CC1 ... 5.30 to 5.60
CCC[C@H]1CC[C@H](C2CCN(c3cnc(-c4ccc(CC(NC(=O)c5ccc(C(C)(C)C)s5)C(=O)NS(=O)(=O)C(F)(F)F)cc4)nc3)CC2)CC1 (some centres unmarked) ... > 6.10
CCCc1ccc(-c2ccc(-c3cnc(-c4ccc(C[C@H](NC(=O)C5CCC(C(C)(C)C)CC5)C(=O)N5CC(C(=O)O)C5)cc4)nc3)c(F)c2)cc1 (some centres unmarked) ... > 6.10
CCCc1ccc(C2CCCN(c3cnc(-c4ccc(C[C@H](NC(=O)c5ccc(C(C)(C)C)s5)C(=O)N5CC(C(=O)O)C5)cc4)nc3)CC2)cc1 (some centres unmarked) ... 5.60 to 6.10
CC[C@H]1CC[C@H](c2ccc(-c3cnc(-c4ccc(C[C@@H](NC(=O)c5ccc(C(C)(C)C)s5)C(=O)N[C@H](C)C(=O)O)cc4)nc3)cc2)CC1 ... 5.00 to 5.30
CCCCc1ccc(-c2ccc(-c3cnc(-c4ccc(C[C@H](NC(=O)c5ccc(C(C)(C)C)s5)C(=O)N5CC(C(=O)O)C5)cc4)nc3)cc2)cc1 ... > 6.10
C[C@@H](NC(=O)[C@H](Cc1ccc(-c2ncc(/C=C/c3cc(C(F)(F)F)cc(C(F)(F)F)c3)cn2)cc1)NC(=O)c1ccc(C(C)(C)C)s1)C(=O)O ... 5.60 to 6.10

Please look at the following molecule next.
Recorded result, CCCc1ccc(C(=O)N[C@@H](Cc2ccc(-c3ncc(-c4ccc(OCCCC(C)C)cc4)cn3)cc2)C(=O)N2CC(C(=O)O)C2)s1 , pEC50: 5.60 to 6.10
